tested on: DMS 273 small cell lung; experiment: NCI tumour cell line growth inhibition, 48 h
Listed next: entries and their corresponding TGI.

The following compounds have reported results that may help.
Query :: Which TGI is listed for CN[C@@H](C)[C@@H](N)c1ccccc1 ?
Result :: > 100 µM

Query :: # repeat for CCOC(=O)[C@H]1Nc2c(cccc2[N+](=O)[O-])[C@H]2OCC[C@@H]12
Result :: > 100 µM

Continuing:
Query :: Which TGI is listed for C=C1CC[C@@H](Br)C(C)(C)[C@]12CCC(C)(O)C(Cl)C2 (stereo partly specified) ?
Result :: 36.2 µM

* * *

tested on: KM20L2 colon; experiment: NCI tumour cell line growth inhibition, 48 h
Listed next: entries and their corresponding TGI.

The following compounds have reported results that may help.
Query :: Which TGI is listed for NNC(=S)N/N=C(/C(=O)Nc1cc(Cl)ccc1Cl)C1C(=O)Nc2ccccc2S1=O (centres undefined) ?
Result :: > 100 µM

Query :: # repeat for CN(N=O)C(=O)N[C@@H](C=O)[C@@H](O)[C@H](O)[C@H](O)CO
Result :: > 750 µM

Query :: # repeat for CC1(C)OC(C[C@]2(C#N)C[C@H](CCl)OC(C)(C)O2)C[C@@H](C[C@]2(C#N)C[C@H](CCl)OC(C)(C)O2)O1 (some centres undefined)
Result :: > 100 µM

Below: the item to evaluate.
Query :: Which TGI is listed for O=c1cccccc1NCCCCCCNc1cccccc1=O ?
Result :: > 100 µM

* * *

system: MOLT-4 leukemia; test: NCI tumour cell line growth inhibition, 48 h; in the data active means GI50 below about 0.43 µM; inactive means the rest
Reply using exactly one outcome from yes (1) (active), no (0) (inactive)

Observe how each entry below is paired with its result.
Query :: What classification did CN(C)c1ccc(/C=C(\C#N)c2nc3ccccc3n2C)cc1 end up with in this test?
Result :: no (0)

Query :: # repeat for CNC(=O)c1ccc2cc(C3(O)CCn4cncc43)ccc2c1 (stereo unspecified)
Result :: no (0)

Continuing:
Query :: What classification did Cc1cccc(C(=O)/C=C/SC(=NC#N)SCc2ccccc2)c1 end up with in this test?
Result :: no (0)

Query :: # repeat for C=CC[P+](c1ccccc1)(c1ccccc1)c1ccccc1
Result :: no (0)

* * *

tested on: OVCAR-5 ovarian; assay: NCI tumour cell line growth inhibition, 48 h
observable: TGI

The following compounds have reported results that may help.
Query :: Which TGI is listed for O=C1C(C(c2ccccc2)N2CCOCC2)=C(O)C(c2ccccc2)N1c1ccccc1 (stereo not drawn) ?
Result :: > 10 µM

Query :: # repeat for Cc1ccc(C[P+]2(c3ccccc3)CCCCC2)cc1
Result :: > 100 µM

Query :: # repeat for O=C(CCCN1CCC2(CC1)NC(=O)c1ccccc1O2)c1ccc(F)cc1
Result :: > 100 µM

Query :: # repeat for CC(C)(C#N)c1cc(F)cc(C(=O)Nc2cc(Nc3ncccc3-c3ncnc4nc[nH]c34)ccc2F)c1
Result :: > 10 µM

Query :: # repeat for O=C(c1ccccc1)c1ccc(OCCOc2ccc(Nc3ccccc3)cc2)cc1
Result :: > 100 µM

Below: the item to evaluate.
Query :: Which TGI is listed for O=C(c1ccc2ccccc2c1)N(Cc1cccnc1)C(=S)N(Cc1cccnc1)C(=O)c1ccc2ccccc2c1 ?
Result :: > 100 µM

* * *

test system: HCT-116 colon; test: NCI tumour cell line growth inhibition, 48 h
Listed next: entries and their corresponding TGI.

The following compounds have reported results that may help.
Query :: Short answer please: TGI, HCT-116 colon, entry Cc1nn(C(=O)c2ccc(Cl)cc2)c2c1C(c1cccc([N+](=O)[O-])c1)SC(N)=N2 (stereo not drawn)
Result :: > 10 µM

Query :: # repeat for c1ccc(C2SCc3nc4cc5ccccc5cc4n32)cc1 (stereo not drawn)
Result :: > 100 µM

Continuing:
Query :: Short answer please: TGI, HCT-116 colon, entry CCC(=O)N1NC(=O)C(CC)(CC)C1=O
Result :: > 100 µM

Query :: # repeat for CN(C)c1nc2n(CCO)c(-c3ccccc3)c(-c3ccccc3)nc-2c(=O)n1
Result :: > 100 µM

* * *

tested on: CAKI-1 renal; assay: NCI tumour cell line growth inhibition, 48 h
observable: log10 of TGI (log10 of the value in µM)
Record value = log10 of TGI given in µM.

The following compounds have reported results that may help.
Query :: Which log10 of TGI is listed for O=C1c2ccccc2C(=O)c2c(NCCNCCO)ccc(O)c21 ?
Result :: 1.06

Query :: # repeat for O=C(Nc1ccc(Oc2ccc3nc(NC(=O)c4ccccc4)[nH]c3c2)cc1)Nc1cc(C(F)(F)F)ccc1F
Result :: 0.89

Query :: # repeat for ClCCN1CCOC1=Nc1ccc2c(c1)CCCC2
Result :: 1.73

Query :: # repeat for CCOC(=O)c1c2c(n(Cc3ccccc3)c1C)-c1ccccc1C(=O)C2=O
Result :: 1.56

Below: the item to evaluate.
Query :: Which log10 of TGI is listed for Oc1c(CN2CCCC2)cc(COCc2ccc(Br)cc2)c2cccnc12 ?
Result :: 0.36

* * *

system: UACC-62 melanoma; assay: NCI tumour cell line growth inhibition, 48 h
observable: TGI

Query :: Which TGI is listed for Cc1cnc(-c2c[nH]c3ccccc23)nc1-c1c[nH]c2ccccc12 ?
Result :: 17.4 µM

Query :: # repeat for CC(O)C(N=Cc1nc(-c2ccccc2)oc1O)C(=O)O (configuration not stated)
Result :: > 100 µM

Continuing:
Query :: Which TGI is listed for CC(=O)Nc1sc([N+](=O)[O-])cc1S(=O)(=O)c1ccc(Cl)cc1 ?
Result :: 22.4 µM

Query :: # repeat for O=C(c1cc2ccccc2o1)N(Cc1ccccc1)c1ccccc1
Result :: 28.1 µM

Query :: # repeat for CCOC(=O)C1=C(C)NC2SC(=O)/C(=C\c3ccccc3O)N2C1c1ccccc1 (configuration not stated)
Result :: 41.8 µM

Query :: # repeat for C/C(=C\C1=C(Cl)C(=O)c2ccccc2C1=O)C(=O)O
Result :: 31.5 µM

Query :: # repeat for Cc1nc2ccccc2c(=O)n1NC(=O)c1ccc([N+](=O)[O-])cc1
Result :: > 100 µM

* * *

tested on: TK-10 renal; test: NCI tumour cell line growth inhibition, 48 h
observable: TGI

The following molecules have reported results that may help.
Query :: Which TGI is listed for N#Cc1ccc(N2Cc3ccccc3OC3=C2C(=O)c2c(O)ccc(O)c2C3=O)cc1 ?
Result :: 0.265 µM

Query :: # repeat for CCOC(=O)C1=C(O)CSC1=Nc1ccccc1
Result :: > 100 µM

Query :: # repeat for O=C(CCCN1CCC2(CC1)NC(=O)c1ccccc1O2)c1ccc(F)cc1
Result :: > 100 µM

Query :: # repeat for CN(C)c1nc2n(CCO)c(-c3ccccc3)c(-c3ccccc3)nc-2c(=O)n1
Result :: > 100 µM

Query :: # repeat for CC(C)(C#N)c1cc(F)cc(C(=O)Nc2cc(Nc3ncccc3-c3ncnc4nc[nH]c34)ccc2F)c1
Result :: > 10 µM

Query :: # repeat for O=C(NNc1ccnc2cc(Cl)ccc12)/C(=C\c1ccccc1Cl)NC(=O)c1ccccc1
Result :: > 100 µM

Continuing:
Query :: Which TGI is listed for CC(=O)O[C@H](C[C@H](C(C)C)N(C)C(=O)[C@@H](NC(=O)[C@H]1CCCCN1C)C(C)C)c1nc(C(=O)N[C@@H](Cc2ccccc2)C[C@H](C)C(=O)O)c(C(C)C)s1 ?
Result :: > 33.3 µM

Query :: # repeat for COc1cccc2c1-c1c(c3ccc([N+](=O)[O-])cc3c(=O)n1CCCCl)C2=O
Result :: 38.9 µM

Query :: # repeat for CC1(C)CCc2cc3c(cc2O1)OCC1c2cc4c(cc2OC31)OCO4 (centres undefined)
Result :: > 100 µM

* * *

tested on: ACHN renal; assay: NCI tumour cell line growth inhibition, 48 h
observable: TGI (µM)
Respond with the bare value in µM.

Query :: Which TGI is listed for CCOC(=O)C1=C(C)NC2SC(=O)/C(=C\c3ccccc3O)N2C1c1ccccc1 (centres undefined) ?
Result :: 81.4

Continuing:
Query :: Which TGI is listed for CCCc1c[nH]c(-c2ccc(-c3cc(CCC)c(C=O)[nH]3)s2)c1 ?
Result :: 33.5

* * *

system: SN12C renal; assay: NCI tumour cell line growth inhibition, 48 h
Listed next: entries and their corresponding TGI.

Query :: Which TGI is listed for O=C1c2ccccc2C(=Cc2ccccc2)c2ccccc21 ?
Result :: 14.1 µM

Query :: # repeat for COc1ccc2c(c1)[n+]([O-])c(-c1ccccc1)c(N)[n+]2[O-]
Result :: > 100 µM

Query :: # repeat for O=C1c2ccccc2C(=O)c2c(NCCNCCO)ccc(O)c21
Result :: 12.8 µM

Query :: # repeat for COc1cc(=O)n2c3ccccc3n(C)c2c1C#N
Result :: > 100 µM

Query :: # repeat for CCOC(=O)c1c2c(n(Cc3ccccc3)c1C)-c1ccccc1C(=O)C2=O
Result :: 41.6 µM

Query :: # repeat for CSCCC(N)P(C)(=O)O (configuration not stated)
Result :: > 100 µM

Query :: # repeat for O=P1(c2ccccc2)c2ccccc2CCc2ccccc21
Result :: > 100 µM

Query :: # repeat for O=c1c2ccccc2n2n1CC(O)C2 (configuration not stated)
Result :: > 100 µM

Query :: # repeat for c1ccc(C2SCc3nc4cc5ccccc5cc4n32)cc1 (configuration not stated)
Result :: > 100 µM

Query :: # repeat for C/C(=C\C1=C(Cl)C(=O)c2ccccc2C1=O)C(=O)O
Result :: 55.1 µM

Continuing:
Query :: Which TGI is listed for CCCCCC(=O)Nc1nc[nH]c1C(N)=O ?
Result :: > 100 µM

Query :: # repeat for CCOC(=O)Nc1cc2c(c(N)n1)N=C(c1ccccc1)[C@H](C)N2
Result :: > 100 µM

Cited source for all entries: PubChem BioAssay (NCI)
